Assay: Protein binding in human
Format: ADME, organism-based
Conditions: in vivo, read-out: PB (converted)
reported.property: fraction unbound

chemical_smiles=O=C(O)c1ccc(Oc2cc(NC(=O)N3CCC(O)(c4ccc(F)cc4)CC3)cc(Oc3ccc(F)cc3)c2)cc1 reported_property="fraction unbound" val=0.002

* * *

Test: Permeability from apical to basolateral side in human Caco2 cells
Assay type: ADME, cell-based
Settings: Caco-2, read-out: permeability
reported.property: Papp A→B (×10⁻⁶ cm/s)

chemical_smiles=O=C(O)c1ccc(Oc2cc(NC(=O)N3CCC(O)(c4ccc(F)cc4)CC3)cc(Oc3ccc(F)cc3)c2)cc1 measure_unit="×10⁻⁶ cm/s" val=1.3
